- protocol: soluble on expression in E. coli; label from the status in PepcDB or PDB records
readout-label: soluble on expression in E. coli

>  <sequence-content>
MMKRNILAVIVPALLVAGTANAAEIYNKDGNKVDLYGKAVGLHYFSKGNGENSYGGNGDMTYARLGFKGETQINSDLTGYGQWEYNFQGNNSEGADAQTGNKTRLAFAGLKYADVGSFDYGRNYGVVYDALGYTDMLPEFGGDTAYSDDFFVGRVGGVATYRNSNFFGLVDGLNFAVQYLGKNERDTARRSNGDGVGGSISYEYEGFGIVGAYGAADRTNLQEAQPLGNGKKAEQWATGLKYDANNIYLAANYGETRNATPITNKFTNTSGFANKTQDVLLVAQYQFDFGLRPSIAYTKSKAKDVEGIGDVDLVNYFEVGATYYFNKNMSTYVDYIINQIDSDNKLGVGSDDTVAVGIVYQF

>  <measured-result>
soluble

$$$$
>  <sequence-content>
MAQHPPYCRNQPGKCQIPLRDLFDRAVVLSHYIHNLSSEMFSEFDKRYTHGRGFITKAINSCHTSSLATPEDKEQAQQMNQKDFLSLIVSILRSWNEPLYHLVTEVRGMQEAPEAILSKAVEIEEQTKRLLEGMELIVSQVHPETKENEIYPVWSGLPSLQMADEESRLSAYYNLLHCLRRDSHKIDNYLKLLKCRIIHNNNC

>  <measured-result>
soluble

$$$$
